// provenance: patent US11667602B2

testTarget: human RXFP1 (Homo sapiens, UniProt Q9HBX9)
Sequence (Q9HBX9 whole entry): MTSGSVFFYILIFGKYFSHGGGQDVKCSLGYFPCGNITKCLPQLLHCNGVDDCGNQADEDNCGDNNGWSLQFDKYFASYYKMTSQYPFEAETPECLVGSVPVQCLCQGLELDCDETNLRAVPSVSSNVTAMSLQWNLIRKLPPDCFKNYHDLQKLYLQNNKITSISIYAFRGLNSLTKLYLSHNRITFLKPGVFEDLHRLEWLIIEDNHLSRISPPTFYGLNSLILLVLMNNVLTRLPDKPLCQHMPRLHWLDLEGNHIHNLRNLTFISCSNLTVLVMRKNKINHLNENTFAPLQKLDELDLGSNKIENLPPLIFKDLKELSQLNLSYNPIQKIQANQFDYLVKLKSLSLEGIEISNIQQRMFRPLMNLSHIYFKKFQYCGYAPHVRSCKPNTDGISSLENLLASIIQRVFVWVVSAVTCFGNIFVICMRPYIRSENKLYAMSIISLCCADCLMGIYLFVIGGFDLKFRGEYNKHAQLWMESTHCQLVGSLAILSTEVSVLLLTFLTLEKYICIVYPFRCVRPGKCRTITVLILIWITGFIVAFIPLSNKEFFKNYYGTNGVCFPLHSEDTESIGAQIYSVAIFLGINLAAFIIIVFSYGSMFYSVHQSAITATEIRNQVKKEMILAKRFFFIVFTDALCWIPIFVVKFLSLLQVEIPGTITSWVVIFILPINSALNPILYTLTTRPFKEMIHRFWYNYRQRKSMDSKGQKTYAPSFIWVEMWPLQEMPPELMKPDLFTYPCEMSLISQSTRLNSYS
assayExplanation: RXFP1 Hu cAMP (Test A)
Type: cell-based
Design: expressed in transfected cells; host or cells: Jump-In T-REx CHO-K1 cells (ThermoFisher), induced with 10 ng/ml doxycycline for 24 h
assayContext: RXFP1 Hu cAMP; read-out: Test A EC50
pEC50: −log10 of the molar value.
Values of pEC50 greater than or equal to 7 map to Satisfied; values below map to Not satisfied.

compoundStructure	testTarget	qualitativeLabel
COc1cc(C#N)c(O[C@H]2CC[C@@](C)(C(=O)O)CC2)cc1C(=O)Nc1cc(C)ccc1C(=O)N[C@H]1C[C@@H](C)C1	human RXFP1 (Homo sapiens, UniProt Q9HBX9)	Not satisfied
COc1cc(F)c(O[C@H]2CC[C@@](C)(C(=O)O)CC2)cc1C(=O)N[C@@H]1CCC[C@@H]1C(=O)Nc1cccc(S(=O)(=O)C(F)(F)F)c1	human RXFP1 (Homo sapiens, UniProt Q9HBX9)	Satisfied
COc1cc(C#N)c(O[C@H]2CC[C@@](C)(C(=O)O)CC2)cc1C(=O)N[C@@H]1[C@H]2CC[C@H](C2)[C@@H]1C(=O)NCCC1CC1	human RXFP1 (Homo sapiens, UniProt Q9HBX9)	Not satisfied
